Each item that follows carries a reported AD38 Viability Normalized Result (CPAM/DMSO %) at 10 μM.
- Tested on: AD38 cells
- protocol: AD38 viability normalized to DMSO control
- Format: cell-based
- conditions used: 10 μM compound, vs DMSO control; Table 9
property name: AD38 Viability Normalized Result (CPAM/DMSO %) at 10 μM

> print(dat)
                                   compound  reading.unit  observed.result
1  O=S(=O)(c1ccc(F)cc1)N1CCN(c2nc(Nc3ccc(F)cc3)cc(-c3nccs3)n2)CC1 [Compound 1375]             %              104
2  CCCCOc1ccc(S(=O)(=O)N2CCN(c3nc(Nc4ccc(C#N)cc4)cc(C(F)(F)F)n3)CC2)cc1             %              102
3  CCCCOc1ccc(S(=O)(=O)N2CCN(c3nc(C)cc(Nc4ccc(F)cc4)n3)CC2)cc1             %               93
4  O=S(=O)(c1ccc(F)cc1)N1CCN(c2nc(Nc3ccc(F)cc3)cc(C(F)(F)F)n2)CC1             %               77
5  COCCOCCOc1ccc(S(=O)(=O)N2CCN(c3nc(Nc4ccc(F)cc4)cc(C(F)(F)F)n3)CC2)cc1             %               97
6  CCCCCOc1ccc(S(=O)(=O)N2CCN(c3nc(Nc4ccc(F)cc4)cc(C(F)(F)F)n3)CC2)cc1             %               97
7  Cc1ccc(S(=O)(=O)N2CCN(c3nc(Nc4ccc(C#N)cc4)cc(-c4cncs4)n3)CC2)cc1             %              110
8  CCOc1ccc(S(=O)(=O)N2CCN(c3nc(Nc4ccc(F)cc4)cc(C(F)(F)F)n3)CC2)cc1             %               95
9  O=S(=O)(c1ccc(OC(F)(F)F)cc1)N1CCN(c2nc(Nc3nccs3)cc(C(F)(F)F)n2)CC1             %              100

###

- System: HBV viral load, AD38 cells
- protocol: Activity of test compounds on viral production from AD38 cells (viral load by quantitative PCR of the core sequence in supernatant)
- Assay type: cell-based, Hepatitis B virus
- conditions used: Hepatitis B virus, 144 h, 10 μM compound, 6 days at 37° C., vs DMSO control wells; Table 6; read-out: AD38 Viral Load (CpAM/DMSO %) at 10 μM
property name: activity at 10 µM

> print(dat)
                            structure.smiles  observed.result
 1  CN(C)c1cc(Nc2ccc(F)cc2)nc(N2CCN(S(=O)(=O)c3ccccc3)CC2)n1              48%
 2  CN(C)c1cc(Oc2ccc(F)cc2)nc(N2CCN(S(=O)(=O)c3ccc(F)cc3)CC2)n1              59%
 3  COc1ccc(S(=O)(=O)N2CCN(c3nc(C)cc(Nc4ncc(C)cn4)n3)CC2)cc1              87%
 4  CN(C)c1cc(Oc2ccc(F)cc2)nc(N2CCN(S(=O)(=O)c3cccc(C(F)(F)F)c3)CC2)n1              55%
 5  COc1ccc(S(=O)(=O)N2CCN(c3nc(C)cc(Nc4ccncc4)n3)CC2)cc1              46%
 6  COc1ccc(S(=O)(=O)N2CCN(c3nc(Nc4ccc(C)cc4)cc(-c4ccccn4)n3)CC2)cc1              56%
 7  O=S(=O)(c1ccc(F)cc1)N1CCN(c2nc(Oc3ccc(F)cc3)cc(-n3cnnc3)n2)CC1              84%
 8  Cc1ccc(S(=O)(=O)N2CCN(c3nc(Nc4ccc(F)cc4)cc(-n4cnnc4)n3)CC2)cc1              25%
 9  Cc1ccc(S(=O)(=O)N2CCN(c3nc(Oc4ccc(F)cc4)cc(-n4cnnc4)n3)CC2)cc1              50%
10  COc1ccc(S(=O)(=O)N2CCN(c3nc(C)cc(Nc4cncnc4)n3)CC2)cc1              76%
11  CNc1cc(Nc2ccc(C)cc2)nc(N2CCN(S(=O)(=O)c3ccc(OC)cc3)CC2)n1              32%
12  N#Cc1ccc(Nc2cc(C(F)(F)F)nc(N3CCN(S(=O)(=O)c4ccc(C(F)(F)F)cc4)CC3)n2)cc1              18%
13  CN(C)c1cc(Nc2ccc(F)cc2)nc(N2CCN(S(=O)(=O)c3cccc(C(F)(F)F)c3)CC2)n1               4%
14  N#Cc1ccc(Nc2cc(C(F)(F)F)nc(N3CCN(S(=O)(=O)c4ccccc4)CC3)n2)cc1               1%
15  COc1ccc(S(=O)(=O)N2CCN(c3nc(Nc4ccc(C)cc4)cc(N4CCCCC4=O)n3)CC2)cc1              40%
16  COc1ccc(S(=O)(=O)N2CCN(c3nc(C)cc(S(=O)(=O)c4ccc(C)cc4)n3)CC2)cc1              60%
17  COc1ccc(S(=O)(=O)N2CCN(c3nc(NCCO)cc(Nc4ccc(C)cc4)n3)CC2)cc1              83%
18  Cc1ccc(Nc2cc(C)nc(N3CCN(S(=O)(=O)c4cccnc4)CC3)n2)cc1              35%
19  COc1ccc(S(=O)(=O)N2CCN(c3nc(Nc4ccc(C#N)cc4)cc(C(F)(F)F)n3)CC2)cc1               1%
20  Cc1ccc(S(=O)(=O)N2CCN(c3nc(Oc4ccc(F)cc4)cc(N(C)C)n3)CC2)cc1              62%
21  Cc1ccc(Nc2cc(C)nc(N3CCN(S(=O)(=O)c4cn[nH]c4)CC3)n2)cc1              26%
22  COc1ccc(S(=O)(=O)N2CCN(c3nc(NCCN(C)C)cc(Nc4ccc(C)cc4)n3)CC2)cc1              60%
23  COc1ccc(S(=O)(=O)N2CCN(c3nc(Nc4ccc(C)cc4)cc(N4CCOCC4)n3)CC2)cc1              45%
24  COc1ccc(S(=O)(=O)N2CCN(c3nc(Nc4ccc(C)cc4)cc(N4CCCC4)n3)CC2)cc1              12%
25  COc1ccc(S(=O)(=O)N2CCN(c3nc(C)cc(Nc4ccc5ccccc5c4)n3)CC2)cc1              52%
26  COc1ccc(S(=O)(=O)N2CCN(c3cccc(Nc4ccc(C)cc4)n3)CC2)cc1              51%
27  Cc1cc(Nc2ccc(C#N)cc2)nc(N2CCN(S(=O)(=O)c3ccc(F)cc3)CC2)n1               5%
28  O=S(=O)(c1ccccc1)N1CCN(c2nc(Oc3ccc(F)cc3)cc(-n3cnnc3)n2)CC1              66%
29  COc1ccc(S(=O)(=O)N2CCN(c3nc(C)cc(Nc4ccc(C)cn4)n3)CC2)cc1              81%
30  COc1ccc(S(=O)(=O)N2CCN(c3nc(Nc4ccc(C)cc4)cc(N(C)C)n3)CC2)cc1               8%
